tested target: T1, hGP130-his (Sino Biological, Catalog #10974) (human, UniProt P40189 23-619)
T1 construct: Bought his-tagged cytokine receptor used as SPR analyte; also called human gp130 receptor subunit; IL6 receptor beta subunit; not shown: his tag
T1 sequence: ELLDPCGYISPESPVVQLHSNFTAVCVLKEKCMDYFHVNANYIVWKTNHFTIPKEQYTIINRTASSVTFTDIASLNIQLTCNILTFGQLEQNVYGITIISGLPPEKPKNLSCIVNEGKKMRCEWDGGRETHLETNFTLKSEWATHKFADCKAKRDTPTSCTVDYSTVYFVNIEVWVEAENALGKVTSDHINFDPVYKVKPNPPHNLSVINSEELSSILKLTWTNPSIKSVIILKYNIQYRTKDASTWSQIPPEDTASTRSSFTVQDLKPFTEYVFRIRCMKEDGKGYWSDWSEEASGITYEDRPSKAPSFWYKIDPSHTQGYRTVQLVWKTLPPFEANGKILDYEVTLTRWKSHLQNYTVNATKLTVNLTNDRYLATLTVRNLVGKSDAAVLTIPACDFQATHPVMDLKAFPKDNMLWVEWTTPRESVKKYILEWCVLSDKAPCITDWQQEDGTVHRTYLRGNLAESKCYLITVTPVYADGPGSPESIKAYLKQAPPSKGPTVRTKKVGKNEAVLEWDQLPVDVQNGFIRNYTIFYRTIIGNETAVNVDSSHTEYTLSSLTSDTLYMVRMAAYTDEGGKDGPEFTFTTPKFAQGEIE
assay remarks: SPR Biacore T200, hgp130 arm
parameter measured: kon (M⁻¹ s⁻¹)
Write the value in M⁻¹ s⁻¹ as a bare number.

- binder: "16-DR593 (SEQ ID NO. 234), anti-hGP130 Mono-Fc VHH (Fc fusion, Mono-Fc VHH ligand captured on a Protein A chip; not shown: mono-Fc part) QVQLQESGGGSVQAGGSLRLSCAASGYPYSNGYMGWFRQAPGKEREGVATIYTGDGRTYYADSVKGRFTISRDNAKNTVDLQMSSLKPEDTAMYYCAARAAPLYSSGSPLTRARYNVWGQGTQVTVSS"
  units of measure: "M⁻¹ s⁻¹"
  kon: 250000
- binder: "17-DR594 (SEQ ID NO. 235), anti-hGP130 Mono-Fc VHH (Fc fusion, Mono-Fc VHH ligand captured on a Protein A chip; not shown: mono-Fc part) QVQLQESGGGSVQAGGSLRLSCVASASTYCTYDMHWYRQAPGKGREFVSAIDSDGTTRYADSVKGRFTISQGTAKNTVYLQMNSLQPEDTAMYYCKTVCVVGSRWSDYWGQGTQVTVSS"
  units of measure: "M⁻¹ s⁻¹"
  kon: 160000
- binder: "19-DR596 (SEQ ID NO. 237), anti-hGP130 Mono-Fc VHH (Fc fusion, Mono-Fc VHH ligand captured on a Protein A chip; not shown: mono-Fc part) QVQLQESGGGLVQPGGSLRLSCTASGLTFDDSVMGWFRQAPGKGREAVSCISSSGANAFYADSVKGRFTISRDNAKNTLYLQMNSLKPEDTATYYCKRGHACAGYYPIPYDDYWGQGTQVTVSS"
  units of measure: "M⁻¹ s⁻¹"
  kon: 190000
- binder: "18-DR595 (SEQ ID NO. 236), anti-hGP130 Mono-Fc VHH (Fc fusion, Mono-Fc VHH ligand captured on a Protein A chip; not shown: mono-Fc part) QVQLQESGGGSVQAGGSLTLSCAASEYAYSTCNMGWYRQAPGKERELVSAFISDGSTYYADSVKGRFTITRDNAKNTVYLQMNSLKPEDTAIYYCSANCYRRLRNYWGQGTQVTVSS"
  units of measure: "M⁻¹ s⁻¹"
  kon: 180000
- binder: "14-DR591 (SEQ ID NO. 232), anti-hGP130 Mono-Fc VHH (Fc fusion, Tested as Mono-Fc VHH ligand captured on a Protein A chip; not shown: mono-Fc part) QVQLQESGGGSVQAGGSLRLSCTASGAIASGYIDSRWCMAWFRQAPGKEREGVAAIWPGGGLTVYADSVKGRFTISRDHAKNTLYLQMNNLKPEDTAMYYCAAGSPRMCPSLEFGFDYWGQGTQVTVSS"
  units of measure: "M⁻¹ s⁻¹"
  kon: 59000

Now consider the entry below.
Can you share its kon? I mean this binder: 15-DR592 (SEQ ID NO. 233), anti-hGP130 Mono-Fc VHH (Fc fusion, Mono-Fc VHH ligand captured on a Protein A chip; not shown: mono-Fc part) QVQLQESGGGSVQAGGSLRLSCTAPGFTSNSCGMDWYRQAPGKEREFVSSISTDGTTGYADSVKGRFTISKDKAKDTVYLQMNSLKPEDTGMYSCKTKDGTIATMELCDFGYWGQGTQVTVSS
160000
